// data source = paper PMC3274447

test: Pharmacokinetic profile in female db/db mice; type: in vivo; details: mouse, plasma, 30 mg/kg IP
Reported metric: Tmax (min)
Give bare numbers, in min.

Problem: Requested field: Tmax. Item: CC(=O)C(C)C(O)C(C)c1ccc(C)cc1/C=C\CO (stereo not shown)
Result: 4.8

----------
tested on: db/db mice; test: In vivo activity in male db/db mice, 10 days b.i.d.; conditions: 100 mg/kg ip b.i.d. 10 days, Mean ± S.E.M., n = 10, the values are: liver weight
Reported metric: liver weight
# do not omit the unit; it follows the number

Problem: Requested field: liver weight. Item: CC(=O)C(C)C(O)C(C)c1ccc(C)cc1/C=C\CO (stereo not shown)
Result: 2 g

----------
system: db/db mice; experiment: In vivo activity in male db/db mice, 10 days b.i.d.; conditions: 5 mg/kg po b.i.d. 10 days, Mean ± S.E.M., n = 10, the values are: liver weight
Reported metric: liver weight (g)
Answers are plain numbers, in g.

Problem: Requested field: liver weight. Item: CN(CCOc1ccc(CC2SC(=O)NC2=O)cc1)c1ccccn1 (stereo not shown) [Rosiglitazone, rosiglitazone, reference compound]
Result: 2.6

----------
assay: Pharmacokinetic profile in female db/db mice; assay type: in vivo; settings: mouse, plasma, 30 mg/kg IP, read-out: AUC 0-infinity
Reported metric: AUC(0-inf)
# do not omit the unit; it follows the number

Problem: Requested field: AUC(0-inf). Item: CC(=O)C(C)C(O)C(C)c1ccc(C)cc1/C=C\CO (stereo not shown)
Result: 3550 ng·h/mL

----------
test: Pharmacokinetic profile in female db/db mice; assay type: in vivo; conditions: mouse, plasma, 30 mg/kg oral
Reported metric: Tmax (min)
Answers are plain numbers, in min.

Problem: Requested field: Tmax. Item: CC(=O)C(C)C(O)C(C)c1ccc(C)cc1/C=C\CO (stereo not shown)
Result: 4.8

----------
assay: Pharmacokinetic profile in female db/db mice; type: in vivo; conditions: mouse, plasma, 30 mg/kg oral
Reported metric: half-life
# do not omit the unit; it follows the number

Problem: Requested field: half-life. Item: CC(=O)C(C)C(O)C(C)c1ccc(C)cc1/C=C\CO (stereo not shown)
Result: 9.6 min

----------
experiment: Pharmacokinetic profile in female db/db mice; type: in vivo; conditions: mouse, plasma, 30 mg/kg oral
Reported metric: AUC(0-t)
# do not omit the unit; it follows the number

Problem: Requested field: AUC(0-t). Item: CC(=O)C(C)C(O)C(C)c1ccc(C)cc1/C=C\CO (stereo not shown)
Result: 630 ng·h/mL

----------
test: Pharmacokinetic profile in female db/db mice; assay type: in vivo; conditions: mouse, plasma, 30 mg/kg IP
Reported metric: half-life
# do not omit the unit; it follows the number

Problem: Requested field: half-life. Item: CC(=O)C(C)C(O)C(C)c1ccc(C)cc1/C=C\CO (stereo not shown) [NFAT-133]
Result: 1.86 h

----------
assay: Pharmacokinetic profile in female db/db mice; assay type: in vivo; details: mouse, plasma, 30 mg/kg IP
Reported metric: AUC(0-t) (ng·h/mL)
Numbers only, in ng·h/mL.

Problem: Requested field: AUC(0-t). Item: CC(=O)C(C)C(O)C(C)c1ccc(C)cc1/C=C\CO (stereo not shown)
Result: 3220
